Conditions: in methanol, 331.2 K
Property Label: solubility (mole fraction)

input: Dear colleague, I am looking for the recorded solubility (mole fraction) of the following compound: "O=c1c(O)c(-c2ccc(O)c(O)c2)oc2cc(O)cc(O)c12"
output: 0.00159

* * *

Settings: in methanol, 322.2 K
Property Label: solubility (mole fraction)
Write the value as a bare number.

input: Dear colleague, I am looking for the recorded solubility (mole fraction) of the following molecule: "O=c1c(O)c(-c2ccc(O)c(O)c2)oc2cc(O)cc(O)c12"
output: 0.00133

* * *

Conditions: in water, 314.1 K
Property Label: solubility (mole fraction)
Write the value as a bare number.

input: Dear colleague, I am looking for the recorded solubility (mole fraction) of the following compound: "O=c1c(O)c(-c2ccc(O)c(O)c2)oc2cc(O)cc(O)c12"
output: 6.53e-05

* * *

Conditions: in ethanol, 298.6 K
Property Label: solubility (mole fraction)

input: Dear colleague, I am looking for the recorded solubility (mole fraction) of the following compound: "O=c1c(O)c(-c2ccc(O)c(O)c2)oc2cc(O)cc(O)c12"
output: 0.00153

* * *

Conditions: in water, 292.8 K
Property Label: solubility (mole fraction)
Write the value as a bare number.

input: Dear colleague, I am looking for the recorded solubility (mole fraction) of the following compound: "O=c1c(O)c(-c2ccc(O)c(O)c2)oc2cc(O)cc(O)c12"
output: 5.04e-05

* * *

Conditions: in ethanol, 333.8 K
Property Label: solubility (mole fraction)
Write the value as a bare number.

input: Dear colleague, I am looking for the recorded solubility (mole fraction) of the following molecule: "O=c1c(O)c(-c2ccc(O)c(O)c2)oc2cc(O)cc(O)c12"
output: 0.00255

* * *

Settings: in water, 331.2 K
Property Label: solubility (mole fraction)

input: Dear colleague, I am looking for the recorded solubility (mole fraction) of the following compound: "O=c1c(O)c(-c2ccc(O)c(O)c2)oc2cc(O)cc(O)c12"
output: 7.38e-05

* * *

Conditions: in ethanol, 314.1 K
Property Label: solubility (mole fraction)
Write the value as a bare number.

input: Dear colleague, I am looking for the recorded solubility (mole fraction) of the following molecule: "O=c1c(O)c(-c2ccc(O)c(O)c2)oc2cc(O)cc(O)c12"
output: 0.00193

* * *

Conditions: in water, 303.2 K
Property Label: solubility (mole fraction)
Write the value as a bare number.

input: Dear colleague, I am looking for the recorded solubility (mole fraction) of the following compound: "O=c1c(O)c(-c2ccc(O)c(O)c2)oc2cc(O)cc(O)c12"
output: 5.85e-05

* * *

Conditions: in methanol, 318.8 K
Property Label: solubility (mole fraction)
Write the value as a bare number.

input: Dear colleague, I am looking for the recorded solubility (mole fraction) of the following compound: "O=c1c(O)c(-c2ccc(O)c(O)c2)oc2cc(O)cc(O)c12"
output: 0.00127

* * *

Details: in methanol, 325.6 K
Property Label: solubility (mole fraction)
Write the value as a bare number.

input: Dear colleague, I am looking for the recorded solubility (mole fraction) of the following molecule: "O=c1c(O)c(-c2ccc(O)c(O)c2)oc2cc(O)cc(O)c12"
output: 0.00142

* * *

Conditions: in water, 298.6 K
Property Label: solubility (mole fraction)

input: Dear colleague, I am looking for the recorded solubility (mole fraction) of the following molecule: "O=c1c(O)c(-c2ccc(O)c(O)c2)oc2cc(O)cc(O)c12"
output: 5.51e-05
